# experimentalTarget: GABA-A receptor; alpha-1/beta-2/gamma-2 (Rattus norvegicus) (UniProt P18508+P62813+P63138)
# assayDetails: Inverse agonist activity at rat GABA alpha-1-beta-3-gamma-2 receptor expressed in HEK293 cells by electrophysiology assay relative to GABA
# Format: functional, cell-based
reportedProperty: Efficacy (%)
# unit: % | format: bare number

Clc1ncn2c1Cn1ncnc1-c1cc(Br)ccc1-2; -13

Q: Consider the compound shown here: Clc1ccc2c(c1)-c1ncnn1Cc1c(Cl)ncn1-2 What is its recorded Efficacy?
A: -3

Q: Bench note: what Efficacy did FC(F)c1ncn2c1Cn1ncnc1-c1cc(Br)ccc1-2 show?
A: -3

Q: What measured Efficacy goes with Cc1ncn2c1Cn1ncnc1-c1cc(Br)ccc1-2 ?
A: -9

Q: Fill in: Efficacy of Cc1ncn2c1Cn1ncnc1-c1cc(Cl)ccc1-2 is ___
A: -11

Q: Entry FC(F)c1ncn2c1Cn1ncnc1-c1cc(Cl)ccc1-2 has what Efficacy?
A: -20

###

# Efficacy per entry
# experimentalTarget: GABA A receptor alpha-5/beta-3/gamma-2 (Rattus norvegicus) (UniProt P18508+P19969+P63079)
# assayDetails: Inverse agonist activity at rat GABA alpha-5-beta-3-gamma-2 receptor expressed in HEK293 cells by electrophysiology assay relative to GABA
# Assay type: functional, cell-based
Answer in %, number only, no unit symbol.

Some entries whose results are on file:
FC(F)c1ncn2c1Cn1ncnc1-c1cc(Br)ccc1-2; -35
Clc1ncn2c1Cn1ncnc1-c1cc(NC3CC3)ccc1-2; -37
Clc1ncn2c1Cn1ncnc1-c1cc(C3CC3)ccc1-2; -47

Q: Sample Fc1ccc2c(c1)-c1ncnn1Cc1c(Cl)ncn1-2 — what was its Efficacy?
A: -33

Q: Data request, read-out Efficacy, for CC(=O)Nc1ccc2c(c1)-c1ncnn1Cc1c(Cl)ncn1-2
A: -34

Q: Returns the measured Efficacy for the input compound. Input: CCS(=O)(=O)c1ncn2c1Cn1ncnc1-c1cc(Cl)ccc1-2
A: -23

###

# experimentalTarget: GABA-A receptor; alpha-2/beta-3/gamma-2 (Homo sapiens, UniProt P18507+P28472+P47869)
# assayDetails: Displacement of [3H]Flumazenil from cloned human GABA alpha-2-beta-3-gamma-2 receptor expressed in HEK293 cells
reportedProperty: pKi
Reminder that pKi means the negative base-10 logarithm of the concentration expressed in mol/L.

Take a look at these entries with their results.
Clc1ncn2c1Cn1ncnc1-c1cc(Br)ccc1-2; 7.62
FC(F)c1ncn2c1Cn1ncnc1-c1cc(Br)ccc1-2; 6.73
Cc1ncn2c1Cn1ncnc1-c1cc(Cl)ccc1-2; 6.66
Clc1ccc2c(c1)-c1ncnn1Cc1c(Cl)ncn1-2; 7.62

Now for another entry.
Q: What does the record list as pKi for FC(F)c1ncn2c1Cn1ncnc1-c1cc(Cl)ccc1-2 ?
A: 7.09

###

# experimentalTarget: GABA-A receptor; alpha-3/beta-3/gamma-2 (Homo sapiens, UniProt P18507+P28472+P34903)
# Sequence (P18507 whole entry): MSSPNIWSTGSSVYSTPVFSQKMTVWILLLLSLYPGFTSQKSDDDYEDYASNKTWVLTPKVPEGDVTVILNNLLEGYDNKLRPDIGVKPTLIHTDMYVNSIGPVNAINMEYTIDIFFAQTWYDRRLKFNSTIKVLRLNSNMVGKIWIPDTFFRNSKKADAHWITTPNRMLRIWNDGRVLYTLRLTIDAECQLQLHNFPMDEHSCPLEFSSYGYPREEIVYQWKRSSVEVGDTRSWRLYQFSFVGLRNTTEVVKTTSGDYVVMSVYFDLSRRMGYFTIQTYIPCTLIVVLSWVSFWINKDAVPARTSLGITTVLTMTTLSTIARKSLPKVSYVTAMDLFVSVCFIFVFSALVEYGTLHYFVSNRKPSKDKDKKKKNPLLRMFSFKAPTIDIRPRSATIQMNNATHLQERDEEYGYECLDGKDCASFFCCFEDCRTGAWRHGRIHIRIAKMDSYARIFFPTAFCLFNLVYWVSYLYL
# Sequence (P28472 whole entry): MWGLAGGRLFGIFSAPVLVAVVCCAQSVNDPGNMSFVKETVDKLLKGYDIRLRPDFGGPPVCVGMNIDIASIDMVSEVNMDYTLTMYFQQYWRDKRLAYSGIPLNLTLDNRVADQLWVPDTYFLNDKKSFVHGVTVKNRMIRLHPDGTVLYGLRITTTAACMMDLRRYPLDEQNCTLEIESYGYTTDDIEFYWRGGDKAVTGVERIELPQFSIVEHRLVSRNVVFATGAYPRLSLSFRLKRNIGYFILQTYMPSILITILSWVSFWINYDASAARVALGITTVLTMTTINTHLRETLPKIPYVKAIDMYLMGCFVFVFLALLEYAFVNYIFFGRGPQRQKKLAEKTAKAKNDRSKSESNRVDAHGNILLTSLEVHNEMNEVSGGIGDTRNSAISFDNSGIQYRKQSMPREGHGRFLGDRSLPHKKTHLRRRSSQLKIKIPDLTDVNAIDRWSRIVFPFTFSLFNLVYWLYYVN
# Sequence (P34903 whole entry): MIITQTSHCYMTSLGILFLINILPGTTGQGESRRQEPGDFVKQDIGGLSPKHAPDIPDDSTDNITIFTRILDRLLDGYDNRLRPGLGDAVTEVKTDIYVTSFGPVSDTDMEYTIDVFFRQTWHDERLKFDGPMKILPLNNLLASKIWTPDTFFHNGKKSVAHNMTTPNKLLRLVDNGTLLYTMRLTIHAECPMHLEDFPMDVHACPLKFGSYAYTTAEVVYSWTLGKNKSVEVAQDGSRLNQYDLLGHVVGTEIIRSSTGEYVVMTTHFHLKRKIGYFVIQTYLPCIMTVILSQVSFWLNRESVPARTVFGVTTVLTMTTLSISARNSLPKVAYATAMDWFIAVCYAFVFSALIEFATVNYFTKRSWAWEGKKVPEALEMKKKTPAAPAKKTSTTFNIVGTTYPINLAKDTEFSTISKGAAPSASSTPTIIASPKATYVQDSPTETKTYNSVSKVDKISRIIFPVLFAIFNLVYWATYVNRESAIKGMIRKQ
# assayDetails: Displacement of [3H]Flumazenil from cloned human GABA alpha-3-beta-3-gamma-2 receptor expressed in HEK293 cells
reportedProperty: log10 of Ki (log10 of the value in nM)
Field: value | Transform: log10 | Quantity: Ki | Unit: nM

Clc1ccc2c(c1)-c1ncnn1Cc1c(Cl)ncn1-2; 1.15
Cc1ncn2c1Cn1ncnc1-c1cc(Cl)ccc1-2; 2.42

Q: Entry Clc1ncn2c1Cn1ncnc1-c1cc(Br)ccc1-2 : reported log10 of Ki = ?
A: 0.94

Q: Which measured log10 of Ki value corresponds to FC(F)c1ncn2c1Cn1ncnc1-c1cc(Br)ccc1-2 ?
A: 1.90

Q: Value lookup for log10 of Ki; key = FC(F)c1ncn2c1Cn1ncnc1-c1cc(Cl)ccc1-2
A: 1.68
